experiment: Primary qHTS for Vero E6 cytotoxicity: counterscreen for inhibitors of SARS-S pseudo-typed particle cell entry (AID 1479150); as to activity change, negative = cytotoxicity: % is scaled to controls: 0 for no effect and ±100 for the full control effect
applied-conditions: cell viability; series mostly up to 57.1 µM
Inconclusive results are not listed. Calls of active or inactive are those of the source. Calls follow the shape of the full dose curve.
measurement-name: activity change, negative = cytotoxicity

* CNCCC=C1c2ccccc2CCc2ccccc21 | inactive
* NCCCC[C@H](N[C@@H](CCc1ccccc1)C(=O)O)C(=O)N1CCC[C@H]1C(=O)O | inactive
* O=C1CN(/N=C/c2ccc([N+](=O)[O-])o2)C(=O)N1 | inactive
* CCOC(=O)c1ccc(OCCN2C[C@H](O)[C@@H](O)[C@H](O)[C@H]2CO)cc1 | inactive

Next molecule, please.
Recorded activity change, negative = cytotoxicity (molecule NC[C@H]1O[C@H](O[C@H]2[C@H](O[C@@H]3O[C@H](CO)[C@@H](O)[C@H]3O)C(O)[C@H](N)C[C@@H]2N)[C@H](N)[C@@H](O)[C@@H]1O (stereo not given in full) ): 0.563% [at 11.4 µM] (inactive)

###

experimental-target: Bile acid receptor (Homo sapiens)
experiment: qHTS assay for small molecule agonists of farnesoid X receptor signaling (AID 588527);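 also: 0% = vehicle basal and 100% = reference agonist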
applied-conditions: HEK293T FXR-UAS-bla, beta-lactamase ratio, 16 h; stronger effect = higher value
Records with an inconclusive call do not appear.
Each record here notes measured activation.
Lab book: enter the figure in %, no units written.

Recorded activation (molecule CCCc1c(OCCCCc2nn[nH]n2)ccc(C(C)=O)c1O ): 7.75

Recorded activation (molecule c1ccc2sc(SSc3nc4ccccc4s3)nc2c1 ): 4.39

Recorded activation (molecule CCCCCCCC(=O)OCC(COC(=O)CCCCCCC)OC(=O)CCCCCCC ): -2.1

Recorded activation (molecule C[C@]12CCC(=O)C=C1CC[C@@H]1[C@@H]2CC[C@]2(C)C(=O)CC[C@@H]12 ): -2.26

Recorded activation (molecule NC(=O)c1ccccc1O ): -3.79

###

experiment: qHTS profiling of the MIPE4 collection as inhibitors of Plasmodium falciparum (DD2) proliferation (Rep 2) (AID 743346)
applied-conditions: P. falciparum Dd2 in erythrocytes, SYBR Green DNA, 72 h; at 28.5 µM (top of the series) unless noted
measurement-name: parasite growth, % of control (lower = inhibition) (%)
Lab book: enter the figure in %, no units written.

Worked examples follow.
- O=C(O)CCCc1ccc(N(CCCl)CCCl)cc1: 81.2
- CCC1(C)CC(=O)NC1=O (stereo unspecified): 96.3
- CC(C)N(CCC(C(N)=O)(c1ccccc1)c1ccccn1)C(C)C (stereo unspecified): 42.5
- O=P1(N(CCCl)CCCl)NCCCO1 (stereo unspecified): 39.6
- CC(=O)N1CCN(c2ccc(OC[C@H]3CO[C@](Cn4ccnc4)(c4ccc(Cl)cc4Cl)O3)cc2)CC1: 31
- Cn1c(=O)c2[nH]cnc2n(C)c1=O: 114
- CCOC(=O)C1=C[C@@H](OC(CC)CC)[C@H](NC(C)=O)[C@@H](N)C1: 101
- CCC1(c2ccc(N)cc2)CCC(=O)NC1=O (stereo unspecified): 117

Next compound, please.
Recorded parasite growth, % of control (lower = inhibition) (compound CN1C(=O)COc2c(C(=O)NC3CN4CCC3CC4)cc(Cl)cc21 (stereo unspecified) ): 95.9

###

applied-conditions: Ebola virus entry assay, ratio channel readout
Active and inactive are the calls of the source.
Please state which outcome applies, choosing from class 1 (active), class 0 (inactive)

Short answer needed: outcome of this test for CN1C(C(=O)Nc2ccccn2)=C(O)c2ccccc2S1(=O)=O ?
class 0

Short answer needed: outcome of this test for CC(=O)NCCCS(=O)(=O)O ?
class 0

Short answer needed: outcome of this test for O=C1Nc2ccc(Cl)cc2C(c2ccccc2Cl)=NC1O (stereo unspecified) ?
class 0

Short answer needed: outcome of this test for CO[C@H]1C=CO[C@@]2(C)Oc3c(C)c(O)c4c(O)c(c5c(nc6cc(C)ccn65)c4c3C2=O)NC(=O)/C(C)=C\C=C[C@H](C)[C@H](O)[C@@H](C)[C@@H](O)[C@@H](C)[C@H](OC(C)=O)[C@@H]1C ?
class 0

Short answer needed: outcome of this test for O=C1CN=C(c2ccccc2)c2cc([N+](=O)[O-])ccc2N1 ?
class 0

Short answer needed: outcome of this test for CN(C)CCc1c[nH]c2ccc(Cn3cncn3)cc12 ?
class 0

Short answer needed: outcome of this test for C=C1[C@H](CO)[C@@H](O)C[C@@H]1n1cnc2c(=O)[nH]c(N)nc21 ?
class 0

Short answer needed: outcome of this test for C[C@]12CCC(=O)C=C1CC[C@H]1[C@@H]3CC[C@](O)(C(=O)CO)[C@@]3(C)C[C@H](O)[C@@]12F ?
class 0

Short answer needed: outcome of this test for CCOC(=O)C1=C[C@@H](OC(CC)CC)[C@H](NC(C)=O)[C@@H](N)C1 ?
class 0

Short answer needed: outcome of this test for CC(C)(C)NC[C@H](O)COc1ccccc1C1CCCC1 ?
class 1

Short answer needed: outcome of this test for N#Cc1ccc2c(c1)N(CCCN1CCC(O)CC1)c1ccccc1S2 ?
class 1

###

experiment: qHTS of pediatric cancer cell lines to identify multiple opportunities for drug repurposing: Primary screen for OHS-50 cells (AID 1347103); also: nearly all actives have a fitted effect of over 40% in size; also: potency is read from the fitted curve at half-maximal effect
applied-conditions: OHS-50 osteosarcoma viability, CellTiter-Glo luminescence, 48 h; series mostly up to 57.3 µM
Records with an inconclusive call do not appear. Calls of active or inactive are those of the source. Calls follow the shape of the dose curve; as a rule, active = well fitted cell-killing curve with a large enough effect; inconclusive = small, poorly fitted or top-dose-only effect; inactive = no such curve, though single readings can be large or run the other way.
measurement-name: Potency

Worked examples follow.
• Oc1ccc(Cl)cc1 = inactive
• COC1CC(=C(c2cccs2)c2cccs2)C[N+](C)(C)C1 (stereo unspecified) = inactive
• C=C(C)[C@H]1CN[C@H](C(=O)O)[C@H]1CC(=O)O = inactive
• COP(=S)(OC)Oc1ccc(SC)c(C)c1 = inactive
• CCOP(=S)(OCC)Oc1ccc2c(C)c(Cl)c(=O)oc2c1 = inactive
• C=CCC1(C(C)CC)C(=O)NC(=O)NC1=O (stereo unspecified) = inactive
• c1ccc(CN2CCNCC2)cc1 = inactive
• NCCc1ccc(O)cc1 = inactive

Recorded Potency (compound COP(=S)(OC)SCN1C(=O)c2ccccc2C1=O ): inactive

Recorded Potency (compound O=c1[nH]c2ccccc2n1C1CCNCC1 ): inactive

Recorded Potency (compound O=C1c2ccccc2C(=O)c2ccccc21 ): inactive

Recorded Potency (compound c1ccc(N2CCNCC2)cc1 ): inactive

Recorded Potency (compound CN1CC[C@]23c4c5ccc(O)c4O[C@H]2[C@@H](O)CC[C@H]3[C@H]1C5 ): inactive

Recorded Potency (compound NNc1ccccc1 ): inactive

Recorded Potency (compound Nc1ccccc1C(=O)O ): inactive

Recorded Potency (compound CC(NC(C)(C)C)C(=O)c1cccc(Cl)c1 (stereo unspecified) ): inactive

Recorded Potency (compound CN1C(=O)COc2c(C(=O)NC3CN4CCC3CC4)cc(Cl)cc21 (stereo unspecified) ): inactive

Recorded Potency (compound O=[N+]([O-])O[C@H]1CO[C@H]2[C@@H]1OC[C@H]2O[N+](=O)[O-] ): inactive

Recorded Potency (compound C=CCC1([C@H](C)CCC)C(=O)NC(=O)NC1=O ): inactive

Recorded Potency (compound CC(=O)NC1CCSC1=O (stereo unspecified) ): inactive

Recorded Potency (compound COc1cccc2c1C(=O)c1c(O)c3c(c(O)c1C2=O)C[C@@](O)(C(=O)CO)CC3OC1CC(N2CCOC(OC)C2)C(O)C(C)O1 (stereo partly specified) ): 34.7 nM (active)

###

applied-conditions: Ebola virus entry assay, ratio channel
Activity calls are given as the source filed them.
Please state which outcome applies, choosing from y (active), n (inactive)

Field: example entries. Status: answers known.
• CN(C)[C@@H]1C(=O)C(C(N)=O)=C(O)[C@@]2(O)C(=O)C3=C(O)c4c(O)cccc4C[C@H]3C[C@@H]12 = y
• c1ccc2c(c1)sc1ccccc12 = n
• O=C(O)CN(CCN(CC(=O)O)CC(=O)O)CCN(CC(=O)O)CC(=O)O = n
• NCCNCCNCCNCCN = n
• O=C(O)c1cc(=O)c2c(OCC(O)COc3cccc4oc(C(=O)O)cc(=O)c34)cccc2o1 = n
• NC(=O)c1ccc([N+](=O)[O-])cc1Cl = n
• CC(CN(C)C)C(C)(O)Cc1ccc(Cl)cc1 (stereo unspecified) = n
• CC(C)(C)C1CCC(CC2=C(O)c3ccccc3C(=O)C2=O)CC1 (stereo unspecified) = n
• Cc1c(N(C)CS(=O)(=O)O)c(=O)n(-c2ccccc2)n1C = n
• Cc1ncc([N+](=O)[O-])n1CC(C)O (stereo unspecified) = n

--- query ---
Short answer needed: outcome of this test for O=C1OC(c2ccc(O)c(S(=O)(=O)O)c2)(c2ccc(O)c(S(=O)(=O)O)c2)c2c(Br)c(Br)c(Br)c(Br)c21 ?
n

###

experiment: qHTS of pediatric cancer cell lines to identify multiple opportunities for drug repurposing: Primary screen for TC32 cells (AID 1347089); also: % is scaled to controls: 0 for no effect and ±100 for the full control effect; nearly all actives have a fitted effect of over 60% in size
applied-conditions: TC32 Ewing sarcoma viability, CellTiter-Glo luminescence, 48 h; series mostly up to 45.8 µM
Records with an inconclusive call do not appear. Active and inactive are the calls of the source. The call rests on the fitted dose curve; in most records, active means well fitted cell-killing curve with a large enough effect; inconclusive means small, poorly fitted or top-dose-only effect; inactive means flat fitted curve, though single readings scatter.
measurement-name: outcome

* C[C@]12CC[C@@H]3c4ccc(OC(=O)N(CCCl)CCCl)cc4CC[C@H]3[C@@H]1CC[C@@H]2O | inactive
* CN(C)CCc1c[nH]c2cccc(OP(=O)(O)O)c12 | inactive
* C[C@]12CCC(=O)C=C1CC[C@@H]1[C@@H]2CC[C@]2(C)C(=O)CC[C@@H]12 | inactive
* c1ccc2c(c1)sc1ccccc12 | inactive

Recorded outcome (molecule O=c1c(C2CC(c3ccc(-c4ccc(Br)cc4)cc3)Cc3ccccc32)c(O)sc2ccccc12 (stereo unspecified) ): inactive

Recorded outcome (molecule CCC(CC)(CNC(=O)CCCO)c1cccc(OC)c1 ): inactive
